molecular target: FGFR3 (Homo sapiens (Human), UniProt P22607); test: Kinase assay, binding constants (Kd), kinase-tagged T7 phage, qPCR
Sequence (P22607 23-806): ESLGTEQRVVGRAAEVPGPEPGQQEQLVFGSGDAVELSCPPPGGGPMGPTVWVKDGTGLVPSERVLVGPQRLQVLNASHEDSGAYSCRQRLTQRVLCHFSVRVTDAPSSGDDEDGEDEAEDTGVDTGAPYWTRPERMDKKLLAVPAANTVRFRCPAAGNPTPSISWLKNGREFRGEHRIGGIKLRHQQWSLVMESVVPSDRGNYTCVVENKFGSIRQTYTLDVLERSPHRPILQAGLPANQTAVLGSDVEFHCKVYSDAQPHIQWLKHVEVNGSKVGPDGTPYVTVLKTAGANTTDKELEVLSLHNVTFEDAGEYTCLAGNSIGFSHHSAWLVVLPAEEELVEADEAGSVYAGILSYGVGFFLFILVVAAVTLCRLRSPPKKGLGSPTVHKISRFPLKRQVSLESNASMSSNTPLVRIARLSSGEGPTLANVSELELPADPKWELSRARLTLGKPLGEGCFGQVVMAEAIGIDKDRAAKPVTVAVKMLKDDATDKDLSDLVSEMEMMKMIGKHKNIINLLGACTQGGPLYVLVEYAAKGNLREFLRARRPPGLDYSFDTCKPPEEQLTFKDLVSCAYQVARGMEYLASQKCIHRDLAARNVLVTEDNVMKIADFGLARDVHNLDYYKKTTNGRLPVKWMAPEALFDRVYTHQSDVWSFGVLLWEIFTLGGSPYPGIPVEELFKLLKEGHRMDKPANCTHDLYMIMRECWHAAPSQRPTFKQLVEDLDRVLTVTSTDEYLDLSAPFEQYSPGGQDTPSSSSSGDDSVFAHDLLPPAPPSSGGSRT
attributeMeasured: Kd

Enquiry: Kd lookup needed for Cc1cnnc(C)c1[C@@H](C)Oc1ccc2[nH]nc(-c3cnc(N4CCN5C(=O)NCC5C4)c(C#N)c3)c2c1 (some centres unmarked) [Example 325] , thanks.
Return: 1 to 20 nM

Enquiry: Same lookup for COc1cc2[nH]nc(-c3ccc(N4CC(O)C4)nc3)c2cc1O[C@H](C)c1c(Cl)cnc(C)c1Cl [Example 208] , please.
Return: 1 to 20 nM

Enquiry: Same lookup for Cc1cnnc(C)c1[C@H](C)Oc1ccc2[nH]nc(-c3cnc(N4CC5(CCS(=O)(=O)C5)C4)nc3)c2c1 [Example 147] , please.
Return: > 300 nM

Enquiry: Same lookup for Cc1cnnc(C)c1[C@H](C)Oc1ccc2[nH]nc(-c3ccc(N4CC5(CCS(=O)(=O)C5)C4)nc3)c2c1 [Example 145] , please.
Return: 20 to 100 nM

Enquiry: Same lookup for Cc1cnnc(C)c1[C@@H](C)Oc1ccc2[nH]nc(-c3ccc(N4CC5(CCCN(S(C)(=O)=O)C5)C4)nc3)c2c1 [Example 188] , please.
Return: 1 to 20 nM

Enquiry: Same lookup for C[C@@H](Oc1ccc2[nH]nc(-c3cnc(N4CCC5(CC4)CC(=O)NC5=O)nc3)c2c1)c1c(Cl)cncc1Cl [Example 50] , please.
Return: 1 to 20 nM

Enquiry: Same lookup for C[C@@H](Oc1ccc2[nH]nc(-c3ccc(C4CCN(C(N)=O)CC4)nc3)c2c1)c1c(Cl)cncc1Cl [Example 72] , please.
Return: 1 to 20 nM

Enquiry: Same lookup for COc1cc(-c2n[nH]c3ccc(O[C@H](C)c4c(C)cnnc4C)cc23)cnc1N1CCN2C(=O)NCC2C1 (some centres unmarked) [Example 328] , please.
Return: 100 to 300 nM

###

# Lookup of reported Kd keyed by entry
target: FGFR3 (V555M) (Homo sapiens (Human), UniProt P22607, V555M); experiment: Kinase assay, binding constants (Kd), kinase-tagged T7 phage, qPCR; settings: V555M mutant
Sequence (P22607 23-806 V555M): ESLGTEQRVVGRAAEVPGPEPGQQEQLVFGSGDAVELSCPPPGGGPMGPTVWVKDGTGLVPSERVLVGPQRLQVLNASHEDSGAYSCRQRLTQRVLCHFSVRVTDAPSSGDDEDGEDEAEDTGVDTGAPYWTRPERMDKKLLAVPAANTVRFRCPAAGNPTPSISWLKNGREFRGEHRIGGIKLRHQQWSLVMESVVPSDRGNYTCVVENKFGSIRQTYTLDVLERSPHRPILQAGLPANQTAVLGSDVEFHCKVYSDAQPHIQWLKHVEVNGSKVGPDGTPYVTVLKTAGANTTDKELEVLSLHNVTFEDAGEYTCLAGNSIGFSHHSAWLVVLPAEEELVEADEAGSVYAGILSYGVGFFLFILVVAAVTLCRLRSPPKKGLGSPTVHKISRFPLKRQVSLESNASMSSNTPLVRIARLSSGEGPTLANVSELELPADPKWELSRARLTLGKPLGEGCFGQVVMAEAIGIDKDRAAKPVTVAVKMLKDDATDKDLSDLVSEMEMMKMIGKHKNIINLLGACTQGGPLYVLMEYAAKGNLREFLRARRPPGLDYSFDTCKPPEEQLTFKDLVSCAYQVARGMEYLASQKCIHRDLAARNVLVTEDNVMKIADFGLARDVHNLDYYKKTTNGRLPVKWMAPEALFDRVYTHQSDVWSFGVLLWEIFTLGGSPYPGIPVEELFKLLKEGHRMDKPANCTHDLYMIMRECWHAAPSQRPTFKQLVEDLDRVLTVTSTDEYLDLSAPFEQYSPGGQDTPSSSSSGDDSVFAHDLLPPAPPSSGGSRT

Example results:
# structure, targetSystem, Kd
rows = [
    ("Cc1cc2[nH]nc(-c3cnc(N4CC5(C4)CN(S(C)(=O)=O)C5)c(C#N)c3)c2cc1O[C@H](C)c1c(Cl)cncc1Cl", "FGFR3 (V555M) (Homo sapiens (Human), UniProt P22607, V555M)", "1 to 20 nM"),
    ("CC(C)S(=O)(=O)N1CC2(CN(c3ncc(-c4n[nH]c5ccc(O[C@H](C)c6c(Cl)cncc6Cl)cc45)cn3)C2)C1", "FGFR3 (V555M) (Homo sapiens (Human), UniProt P22607, V555M)", "1 to 20 nM"),
]

Kindly review the next compound as well.
Enquiry: Give recorded Kd with FGFR3 (V555M) (Homo sapiens (Human), UniProt P22607, V555M) for the following compound: `COc1cc(-c2n[nH]c3ccc(O[C@H](C)c4c(Cl)cncc4Cl)cc23)cnc1N1CC2(C1)CN(S(C)(=O)=O)C2`
Return: 20 to 100 nM

###

# Lookup of reported Kd keyed by entry
Biological target: FGFR2 (Homo sapiens (Human), UniProt P21802)
Sequence (P21802 22-821): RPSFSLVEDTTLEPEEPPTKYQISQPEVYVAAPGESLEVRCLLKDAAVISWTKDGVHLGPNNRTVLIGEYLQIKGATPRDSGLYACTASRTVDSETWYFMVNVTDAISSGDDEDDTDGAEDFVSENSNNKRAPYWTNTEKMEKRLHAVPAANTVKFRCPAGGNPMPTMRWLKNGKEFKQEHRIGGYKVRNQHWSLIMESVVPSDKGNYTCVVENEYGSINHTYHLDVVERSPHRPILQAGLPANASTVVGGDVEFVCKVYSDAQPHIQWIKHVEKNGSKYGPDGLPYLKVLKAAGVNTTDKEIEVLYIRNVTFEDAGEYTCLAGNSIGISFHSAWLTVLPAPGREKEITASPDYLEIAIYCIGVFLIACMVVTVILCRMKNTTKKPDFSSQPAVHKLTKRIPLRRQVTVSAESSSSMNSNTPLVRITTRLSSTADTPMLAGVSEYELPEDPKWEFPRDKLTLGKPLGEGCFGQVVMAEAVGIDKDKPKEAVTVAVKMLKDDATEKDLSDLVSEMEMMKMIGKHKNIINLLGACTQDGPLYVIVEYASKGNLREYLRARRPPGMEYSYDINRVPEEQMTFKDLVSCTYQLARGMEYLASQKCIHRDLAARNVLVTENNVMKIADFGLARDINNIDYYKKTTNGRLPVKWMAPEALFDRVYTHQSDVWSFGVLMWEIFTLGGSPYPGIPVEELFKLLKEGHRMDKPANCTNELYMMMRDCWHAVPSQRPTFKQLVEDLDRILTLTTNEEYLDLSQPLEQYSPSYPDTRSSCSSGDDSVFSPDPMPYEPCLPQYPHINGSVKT
Assay: Kinase assay, binding constants (Kd), kinase-tagged T7 phage, qPCR
Method: Kinase-tagged T7 phage strains were prepared in an E. coli host derived from the BL21 strain. E. coli were grown to log-phase and infected with T7 phage and incubated with shaking at 32° C. until lysis. The lysates were centrifuged and filtered to remove cell debris. […] Test compounds were prepared as 111λ stocks in 10000 DMS0. Kds were determined using an 11-point 3-fold compound dilution series with three DMSO control points. […] The kinase concentration in the eluates was measured by qPCR. […]

Example results:
# compound, attributeMeasured, measuredValue
data = [
    ("C[C@@H](Oc1ccc2[nH]nc(-c3cnc(N4CC5(CCCN(S(C)(=O)=O)C5)C4)c(C#N)c3)c2c1)c1c(Cl)cncc1Cl", "Kd", "> 300 nM"),
    ("C[C@@H](Oc1ccc2[nH]nc(-c3ccc(N4CCC[C@H]4CO)nc3)c2c1)c1c(Cl)cncc1Cl", "Kd", "1 to 20 nM"),
    ("C[C@@H](Oc1cc2c(-c3cnc(N4CC(C)(C)C4)c(C#N)c3)n[nH]c2cc1Cl)c1c(Cl)cncc1Cl", "Kd", "1 to 20 nM"),
]

Kindly review the next compound as well.
Enquiry: Kd lookup needed for `Cc1cnnc(C)c1[C@@H](C)Oc1ccc2[nH]nc(-c3cnc(N4CC5(C4)CN(S(C)(=O)=O)C5)nc3)c2c1` , thanks.
Return: 20 to 100 nM
